- tested-system: guinea pig NK1 receptor (guinea pig, UniProt P30547 1-407)
- Sequence (P30547 whole entry): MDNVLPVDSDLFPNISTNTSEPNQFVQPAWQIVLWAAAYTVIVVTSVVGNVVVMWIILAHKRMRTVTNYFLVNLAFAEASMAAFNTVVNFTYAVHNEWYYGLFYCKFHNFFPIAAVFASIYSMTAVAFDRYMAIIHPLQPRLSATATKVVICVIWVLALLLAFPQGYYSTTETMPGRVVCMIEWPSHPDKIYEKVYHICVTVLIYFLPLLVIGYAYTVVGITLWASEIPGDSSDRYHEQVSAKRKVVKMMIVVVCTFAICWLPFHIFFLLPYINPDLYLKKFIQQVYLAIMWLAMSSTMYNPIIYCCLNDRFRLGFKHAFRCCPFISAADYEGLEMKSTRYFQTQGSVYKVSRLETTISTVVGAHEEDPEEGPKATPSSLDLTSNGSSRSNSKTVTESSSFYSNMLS
- method: cell-based or functional assay
Bridge positions count the residues as written; N and C are the ends. Square brackets hold non-standard residues; d marks the D form. Ends that are not written are not given here. * marks the point of attachment. NH(3,5-(CF3)2-benzyl) = FC(F)(F)c1cc(CN*)cc(C(F)(F)F)c1; OBzl(3,5-(CF3)2) = FC(F)(F)c1cc(CO*)cc(C(F)(F)F)c1; Dmt = Cc1cc(O)cc(C)c1C[C@H](N)C(=O)O; Nle = CCCC[C@H](N)C(=O)O; NHBn = c1ccc(CN*)cc1; OBn = c1ccc(CO*)cc1
outcome-measure: GPI/LMMP SP antagonist Ke (nM)
# unit: nM | format: bare number

{"columns": ["binder", "GPI/LMMP SP antagonist Ke, nM"],
 "data": [
  ["[Dmt][dA]GFMPLW-NHBn [DmtDAlaGlyPheMetProLeuTrpNHBn (TY034)]", 36.9],
  ["Y[dA]GFMPLW-NHBn [TyrDAlaGlyPheMetProLeuTrpNHBn (TY025)]", 9.9],
  ["Y[dA]GFSPLW-{NH(3,5-(CF3)2-benzyl)} (not fully specified (residue 5); printed as TyrDAlaGlyPheSer(OGlu)ProLeuTrpNHBn(CF3)2) [TyrDAlaGlyPheSer(OGlu)ProLeuTrpNHBn(CF3)2 (TY042)]", 2.83],
  ["Y[dA]GFMPLW-OBn [TyrDAlaGlyPheMetProLeuTrpOBn (TY029)]", 5.1],
  ["Y[dC]GF[Nle]P[dC]W-{NH(3,5-(CF3)2-benzyl)} (disulfide 2-7) [Tyr[DCysGlyPheNleProDCys]TrpNHBn(CF3)2 (TY038)]", 12]
]}

Proceed to the following item.
Task: # lookup: GPI/LMMP SP antagonist Ke of Y[dA]GFGPLW-{OBzl(3,5-(CF3)2)} [TyrDAlaGlyPheGlyProLeuTrpOBn(CF3)2 (TY006)]
Output: 5.4
